Tested on: T-47D breast
Assay: NCI-60 one-dose screen, 48 h
Details: 10 µM
The panel holds about 83,000 compounds, 20% with a hit somewhere; the sample as a whole holds those more often. The source made the active and inactive calls. Rule for the calls: active = growth percent below 10; inactive = the rest.
Respond only with the outcome that fits, drawn from active, inactive

Molecule	Label
O=C(CC(C(=O)c1ccccc1)N1CCOCC1)c1ccccc1 (centres undefined)	inactive

I would be grateful if you could indicate the recorded call for `CCN(CC)CCCOCCCNc1cc(OC)cc2cccnc12` . inactive

Given `O=C(CNC(=O)OCc1ccccc1)NCC(=O)Oc1ccc([N+](=O)[O-])cc1` , state the outcome it received in this test. inactive

Field: outcome | Entry: `O=C(Nc1cccc(-n2cc(-c3ccncc3)c(-c3cc(O)cc(Cl)c3)n2)c1)Nc1ccc(Cl)c(C(F)(F)F)c1` inactive

Record lookup: outcome of this test for CCN(CC)CCC(CNc1c(C)cnc2cc(Cl)ccc12)c1ccc(Cl)cc1 (centres undefined) ? inactive

How was `O=C(Nc1ccncc1)C(=O)c1cn(S(=O)(=O)c2cc(Cl)cc(Cl)c2)c2ccccc12` classified in this test? inactive

Test call, this molecule: `Clc1ccc(Nc2ccnc(NCCCNc3ccnc4cc(Cl)ccc34)n2)cc1` active

Recorded test outcome, item `CN(C)C(=S)N/N=C\C=N/NC(=S)N(C)C` inactive

Which outcome was assigned to `O=C(Nc1cccc(-n2cc(-c3ccncc3)c(-c3ccc(O)c(Cl)c3)n2)c1)c1cccc(C(F)(F)F)c1` in this test? inactive

Please let me know the test result on file for `N=C(N)c1ccc(-c2ccc(-c3ccco3)o2)cc1` . inactive

---

Test system: T-47D breast
Experiment: NCI-60 one-dose screen, 48 h
Conditions: 10 µM
This is part of a sample that, as a whole, favours compounds with a hit. Of some 83,000 tested, about 20% had one in any assay. Active and inactive are the calls of the source. How the source made its calls: active means growth percent below 10; inactive means the rest.
Entry note: the call must match one of active, inactive

Compound	Label
COc1cc(NC(=O)CCSc2nc3ccc(C)cc3c(=O)n2Cc2ccccc2)cc(OC)c1OC	inactive

Given `CN(C)CCN1C(=O)c2cccc3c(-c4ccc5ncn(C6CCCCC6)c5c4)ccc(c23)C1=O` , state the outcome it received in this test. inactive

For CCC1(C(C)C)NC(=O)NC1=O (stereo not given) , which call appears in the assay record? inactive

Recorded test outcome, item `Nc1nc(Nc2ccccc2)n[nH]1` inactive

Per the records of this test, what outcome belongs to `N=C(N)c1ccc(-c2ccc(-c3cccs3)o2)cc1` ? inactive

Can you look up the reported call for `C#Cc1ccc(-n2c(/C=C/c3ccc4ccccc4n3)nc3ncccc3c2=O)cc1` for me? active

# lookup: test call for `ClCC#CCSc1ncnc2c1ncn2CC#CCCl` active

Short answer needed: outcome of this test for `CN(CCc1ccccn1)c1ccccc1` ? inactive

Write down the call the test reported for this compound. Item: `CSc1nc(=O)n(Cc2ccc(F)cc2)c(=O)n1Cc1ccc(C)cc1` inactive

For Nc1ccn(C2CC(O)C(CO)O2)c(=O)n1 (stereo not given) , which call appears in the assay record? inactive

Can you look up the reported call for `O=C(C[P+](c1ccccc1)(c1ccccc1)c1ccccc1)C[P+](c1ccccc1)(c1ccccc1)c1ccccc1` for me? active

Answer briefly: the call reported for `CN(C)C=Nc1cc(Cl)ccc1Cl` in this assay. inactive

Could you kindly confirm the outcome this assay logged for `COc1cc(NC(=O)CCSc2nc3ccc(Cl)cc3c(=O)n2Cc2ccccc2)cc(OC)c1OC` ? inactive

# fetch the recorded call for `O=C(O)c1ccc(Cl)cc1Nc1ccc(F)cc1` here inactive

For C=C1c2c(C)nn(-c3ccc(OC)cc3)c2N(C)C23C[C@@H]1C1(C)c4c(C)nn(-c5ccc(OC)cc5)c4N(C)C(C)(C[C@H]12)C3 (stereo not given in full) , which call appears in the assay record? inactive

---

Test system: SF-539 CNS
Assay: NCI-60 one-dose screen, 48 h (100 = growth as untreated, 0 = no growth, -100 = all killed)
Details: 10 µM
This is part of a sample that, as a whole, favours compounds with a hit. Of some 83,000 tested, about 20% had one in any assay.
The label depends only on growth: yes if it is at least 90%, no if it is smaller.

For orientation, consider the following solved cases.
Sample smiles	Label
COc1ccc(-c2nn(-c3cccc(NC(=O)Nc4cc(C(F)(F)F)cc(C(F)(F)F)c4)c3)cc2-c2ccncc2)cc1Cl	no
O=C(Nc1ccncc1)C(=O)c1cn(S(=O)(=O)c2cccc3ccccc23)c2ccccc12	yes
COc1ccc(Nc2ncnc3c2c(SC)nn3-c2ccccc2)cc1	yes

Textbook exercise: given the entry `O=C1/C(=C\c2ccccc2)CN(C(=O)c2ccccc2F)C/C1=C\c1ccccc1` , state whether its growth is greater than or equal to 90%. no

---

Test system: HCT-116 colon
Test: NCI-60 one-dose screen, 48 h (100 = growth as untreated, 0 = no growth, -100 = all killed)
Settings: 10 µM
The panel holds about 83,000 compounds, 20% with a hit somewhere; the sample as a whole holds those more often.
Consider the following molecules and their measured growth readings.
Numbers only here, please. The scale is %.

Known growth results, listed for orientation:
COc1ccc(-c2nn(-c3cccc(NC(=O)c4cccc(C(F)(F)F)c4)c3)cc2-c2ccncc2)cc1Cl 14.5
CSc1nc(=O)n(Cc2ccc(F)cc2)c(=O)n1Cc1ccc(C)cc1 97.5

Let's switch to this molecule now.
Returns the measured growth for the input molecule. Input: `O=C(Nc1ccncc1)C(=O)c1cn(S(=O)(=O)c2cccc3ccccc23)c2ccccc12` 45.8

---

System: TK-10 renal
Assay: NCI-60 one-dose screen, 48 h
Settings: 10 µM
The panel holds about 83,000 compounds, 20% with a hit somewhere; the sample as a whole holds those more often. The source made the active and inactive calls. The calls were made as follows: active = growth percent below 10; inactive = the rest.
Assign a class; possible classes are active, inactive

Below are worked cases with known answers.
Compound	Tgt	Label
CCC(=O)N1C/C(=C/c2ccc(Cl)cc2)C(=O)/C(=C/c2ccc(Cl)cc2)C1	TK-10 renal	active
ClCC#CCSc1ncnc2c1ncn2CC#CCCl	TK-10 renal	inactive
Nc1ncn(C2OC(CO)C(O)C2O)c(=O)n1 (stereo not drawn)	TK-10 renal	active

Which result was noted for this compound in the test: N#CSCC1CC(O)(c2ccccc2)CC(c2ccc(Cl)cc2)O1 (stereo not drawn) active

Which outcome was assigned to `CCN(CC)CCNC(=O)c1ccc(NC(C)=O)cc1` in this test? inactive

For `COc1ccc2c(c1)sc1nc(-c3ccccc3)c(-c3cccnc3)n12` , what call appears in the results of this test? inactive

Dear all, I need the recorded test outcome for `COc1cccc(-c2cc(-c3cccc(NS(C)(=O)=O)c3)nc(N)c2C#N)c1O` , thank you. inactive

Short answer needed: outcome of this test for `CCN(CC)CCOc1nc2cc(OC)c(OC)cc2c2c1-c1ccc(OC)cc1C2=O` ? inactive

Status in this test for CCc1ccc2c(c1)N(CCO)C1=C(C(=O)OC1)C2c1cc(OC)c(OC)c(OC)c1 (stereo not drawn) ? inactive

Each compound tested received a call. Report the one for `O=C(Nc1ccc(CN2CCc3nc4cc(O)c(O)cc4cc32)cc1)c1ccc(Cl)c(Cl)c1` . inactive

GET /call?item= `COc1ccc(-c2cc(/C=C/C(=O)c3cc(OC)c(OC)c(OC)c3)[nH]n2)cc1OC` returns the recorded outcome of this test. active

---

Test system: SF-539 CNS
Assay: NCI-60 one-dose screen, 48 h (100 = growth as untreated, 0 = no growth, -100 = all killed)
Details: 10 µM
This is part of a sample that, as a whole, favours compounds with a hit. Of some 83,000 tested, about 20% had one in any assay.
Endpoint: growth (%)
Write it as a number; the unit % goes unstated.

Compound	Units symbol	growth
CC[C@H](C)C(=O)O[C@H]1CCC=C2C=C[C@H](C)C(CCC3C[C@@H](O)CC(=O)O3)[C@H]21 (stereo not given in full)	%	85.8

Item `CNc1ncc(-c2ccc(C(F)(F)F)cc2)c(NC2CCCCCC2)n1` with SF-539 CNS - growth? 93.5

Lookup: growth / SF-539 CNS / `COc1ccc(-n2c(SCc3cc(OC)c(OC)c(OC)c3)nc3ccc(C)cc3c2=O)cc1` 77.7

Record `COc1cc(Cl)cc(-c2nn(-c3cccc(NC(=O)Nc4ccc(Cl)c(Cl)c4)c3)cc2-c2ccncc2)c1` : what is its growth with SF-539 CNS? 20.9

Requested read-out growth, target or system SF-539 CNS, entry `Cc1ccc(-c2nc(/C=C3/C(=O)N(C)c4ccc(F)cc43)c3ccccn23)cc1` 94.6

Recall the recorded growth for `c1ccc(CSc2nnc3c4c5c(sc4nc(-c4cccnc4)n23)CCCCCC5)cc1` with SF-539 CNS and state it. 79.7

Tell me reported growth for `Nc1nc(Nc2ccccc2)n[nH]1` , tested with SF-539 CNS. 94.2

Write down the reported growth of `Cc1ccc(NC(=O)NC2CCCCC2)cc1` , test system: SF-539 CNS. 102

# returns recorded growth (system: SF-539 CNS) for `CCCCOc1ccc(NC(=O)Nc2nnc(C)s2)cc1` 95.3

Identify the measured growth of `Cc1ccc2oc3nc(C)c(C(=O)NCc4ccccc4)cc3c(=O)c2c1` for SF-539 CNS. 99.3

Any idea what growth came out for `O=C1/C(=C/c2ccc([N+](=O)[O-])s2)Oc2ccccc21` on SF-539 CNS? -77

Hi! What's the reported growth for `O=C(N/N=C/c1cc2ccccc2c2ccccc12)c1cc(O)c(O)c(O)c1` on SF-539 CNS? 50

Recorded growth for CC1(C)OC2=C(CC1Br)C(=O)C(=O)c1ccccc12 (stereo not given) with SF-539 CNS, please? -82

Notebook: pull reported growth for SF-539 CNS, entry `O=C(CCCCC[P+](c1ccccc1)(c1ccccc1)c1ccccc1)NC(COC(=O)C(Cl)Cl)(COC(=O)C(Cl)Cl)COC(=O)C(Cl)Cl` 107

What measured growth is associated with `CC(=O)N(C)c1ccc(Nc2ccc(Nc3ccc(N(C)C(C)=O)cc3)c3c2C(=O)c2ccccc2C3=O)cc1` on SF-539 CNS? 76.3
